target: T1, UL130 expressed from MVA in BHK-21 cells (human cytomegalovirus, UniProt P16772 1-214); assay: intracellular FC, MVA-infected BHK-21
T1 construct: whole, on cells
T1 sequence (P16772 26-214 limits assumed): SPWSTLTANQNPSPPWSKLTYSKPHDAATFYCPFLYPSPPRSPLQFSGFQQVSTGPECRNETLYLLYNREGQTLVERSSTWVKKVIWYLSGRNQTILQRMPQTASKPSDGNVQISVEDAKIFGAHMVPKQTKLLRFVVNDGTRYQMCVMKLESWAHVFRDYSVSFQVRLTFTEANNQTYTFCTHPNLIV
attributeMeasured: binding result

INSERT INTO results (binder, measurement) VALUES
  ('18F10 (antibody, V domains shown, also called NAb 18F10) VH: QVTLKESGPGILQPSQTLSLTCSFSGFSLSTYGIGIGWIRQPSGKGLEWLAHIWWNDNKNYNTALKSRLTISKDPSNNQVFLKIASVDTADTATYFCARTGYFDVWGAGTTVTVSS VL: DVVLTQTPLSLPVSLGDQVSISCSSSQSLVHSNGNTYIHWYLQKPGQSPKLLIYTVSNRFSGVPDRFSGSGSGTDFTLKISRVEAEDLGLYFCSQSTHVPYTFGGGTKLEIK', 'no binding'),
  ('62-100 (antibody, V domains shown, also called NAb 62-100) VH: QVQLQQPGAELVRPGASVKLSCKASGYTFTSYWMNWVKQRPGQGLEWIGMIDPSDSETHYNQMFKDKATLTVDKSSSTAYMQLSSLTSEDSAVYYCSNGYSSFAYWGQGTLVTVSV VL: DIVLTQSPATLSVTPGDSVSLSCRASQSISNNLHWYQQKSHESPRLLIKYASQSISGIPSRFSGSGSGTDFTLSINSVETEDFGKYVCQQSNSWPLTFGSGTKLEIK', 'no binding'),
  ('21F6 (antibody, V domains shown, also called NAb 21F6) VH: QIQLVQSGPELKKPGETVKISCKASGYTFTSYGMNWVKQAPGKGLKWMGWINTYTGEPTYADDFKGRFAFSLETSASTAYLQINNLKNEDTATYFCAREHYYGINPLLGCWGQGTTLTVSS VL: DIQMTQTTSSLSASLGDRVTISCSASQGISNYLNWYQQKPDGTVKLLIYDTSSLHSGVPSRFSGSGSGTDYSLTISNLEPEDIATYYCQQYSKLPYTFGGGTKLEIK', 'no binding');
